Target: Pendrin (Homo sapiens, UniProt O43511)
Sequence (O43511 whole entry): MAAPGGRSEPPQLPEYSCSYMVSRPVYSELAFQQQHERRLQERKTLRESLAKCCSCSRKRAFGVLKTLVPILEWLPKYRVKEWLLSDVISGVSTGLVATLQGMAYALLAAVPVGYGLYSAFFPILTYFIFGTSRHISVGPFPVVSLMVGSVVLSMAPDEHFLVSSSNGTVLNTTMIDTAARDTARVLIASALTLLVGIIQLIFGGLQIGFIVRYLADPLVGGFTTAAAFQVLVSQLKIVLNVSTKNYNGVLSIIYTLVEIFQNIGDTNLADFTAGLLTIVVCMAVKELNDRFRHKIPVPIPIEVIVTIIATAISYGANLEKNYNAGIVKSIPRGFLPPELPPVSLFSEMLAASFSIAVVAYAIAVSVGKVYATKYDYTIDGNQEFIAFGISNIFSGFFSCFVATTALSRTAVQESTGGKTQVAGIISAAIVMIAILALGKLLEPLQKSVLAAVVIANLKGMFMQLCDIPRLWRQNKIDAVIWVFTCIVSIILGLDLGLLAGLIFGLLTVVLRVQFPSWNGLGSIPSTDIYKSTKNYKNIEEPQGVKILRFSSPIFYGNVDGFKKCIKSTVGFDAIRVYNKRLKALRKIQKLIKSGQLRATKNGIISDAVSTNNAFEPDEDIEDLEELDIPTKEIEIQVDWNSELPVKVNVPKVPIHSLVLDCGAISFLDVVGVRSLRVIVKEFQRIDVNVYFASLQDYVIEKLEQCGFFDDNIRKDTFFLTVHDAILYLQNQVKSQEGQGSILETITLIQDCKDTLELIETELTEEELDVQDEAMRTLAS
Experiment: Inhibition of Pendrin (unknown origin) transfected in rat FRT cells assessed as reduction in Cl-/I- ions exchange by YFP fluorescence quenching assay
metric: pIC50
Value format note: pIC50 is -log10 of concentration (mol/L); just state the number.

Bench note: what pIC50 did "Cc1oc2ccc(OCc3ccccc3Cl)cc2c1C(=O)O" show? 6.19

Data origin: BindingDB's records for PubMed 39642691
